Target: Bcl-xL-Beclin 1 complex (Homo sapiens, UniProt Q07817)
Construct: made in house
Sequence (Q07817 whole entry, one chain of several): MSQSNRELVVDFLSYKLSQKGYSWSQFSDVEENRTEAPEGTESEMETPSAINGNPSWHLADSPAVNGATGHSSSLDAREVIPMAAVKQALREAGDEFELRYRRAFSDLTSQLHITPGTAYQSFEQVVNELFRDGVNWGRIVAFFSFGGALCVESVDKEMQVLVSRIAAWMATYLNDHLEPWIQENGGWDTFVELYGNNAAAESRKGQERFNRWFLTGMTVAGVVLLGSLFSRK
Experiment: Concentration response FP reconfirmation of HTS hits
Assay type: binding
Settings: 80 μM; hits of first screen
reportedProperty: Dose-response (% Inhibition) 80 μM (%)

* CCN(CC)CCNC(=O)COc1ccc(OC)cc1.Cl [Compound A32, MEFEXAMIDE HYDROCHLORIDE] | 23.1
* CC[N+](C)(CC)CCC[n+]1c(-c2ccccc2)c2cc(N)ccc2c2ccc(N)cc21.[I-].[I-] [Compound A40, PROPIDIUM IODIDE] | 12.1
* C[n+]1c2cc(N)ccc2cc2ccc(N)cc21.[Cl-] [Compound A26, ACRIFLAVINIUM HYDROCHLORIDE] | 102.0
* CCCCCCCCCCCCCCCCC(C(=O)O)C(O)(CC(=O)O)C(=O)O (stereo not shown) | 20.3
